Cited source: the supplement of paper PMC9732359

assay: protein stability index of a GFP-peptide fusion (yeast GPS) (PSI 1-4); higher = more stable; sorted into four equal gates, so the index is relative within each strain; conditions: ubr1∆
Decide by protein stability index: equal to or exceeding 3 means Met, less means Not met.

// below: answered sequences
NIVQVFKKAAPSPISHV [RPB2]    Not met
QIDYKLESFQAVYNKLT [RPS7A]    Not met
LQRPTATDEESVRLQRF [CSN12]    Met

Query: Identify whether the reported protein stability index of the following sequence is 3 or greater: PSTAIHTSPHQPSDVKP [SIR4]
Reply: Not met

Query: Identify whether the reported protein stability index of the following sequence is 3 or greater: KASTYGELVLDIEVPDV [SNF12]
Reply: Not met

Query: Identify whether the reported protein stability index of the following sequence is 3 or greater: LHGLRSFYDAIFFNIPL [YJL039C/NUP192]
Reply: Not met

Query: Identify whether the reported protein stability index of the following sequence is 3 or greater: LDPLEVHMLDFPNIAIR [PRP8]
Reply: Not met

Query: Identify whether the reported protein stability index of the following sequence is 3 or greater: SIIKAKLPLLNESLIPL [YML103C/NUP188]
Reply: Not met

Query: Identify whether the reported protein stability index of the following sequence is 3 or greater: NNPANNTNNNNSTGHSS [SWI1]
Reply: Not met

Query: Identify whether the reported protein stability index of the following sequence is 3 or greater: LNELSAKDKEIYNKMIG [RPN13]
Reply: Not met

Query: Identify whether the reported protein stability index of the following sequence is 3 or greater: NLEPLIAKLVAVLNVSP [NUT1]
Reply: Not met

Query: Identify whether the reported protein stability index of the following sequence is 3 or greater: KLVRESELLGGTFKSTL [QCR2]
Reply: Met

Query: Identify whether the reported protein stability index of the following sequence is 3 or greater: MLTIARLGFFYNDQLYV [RPN7]
Reply: Not met

Query: Identify whether the reported protein stability index of the following sequence is 3 or greater: PKVPEDIYKSHLDNSKS [RPN1]
Reply: Met

Query: Identify whether the reported protein stability index of the following sequence is 3 or greater: KEVLPDLQNLNLNTDKL [YJL039C/NUP192]
Reply: Not met

Query: Identify whether the reported protein stability index of the following sequence is 3 or greater: SSNVQQPQQQLGDMENN [RTT102]
Reply: Met

Query: Identify whether the reported protein stability index of the following sequence is 3 or greater: NSSEQESDYEPNNETSV [SIR3]
Reply: Not met

Query: Identify whether the reported protein stability index of the following sequence is 3 or greater: KQANNFLWPFKLSNPSG [RPL7A]
Reply: Not met

Query: Identify whether the reported protein stability index of the following sequence is 3 or greater: EVRDATLNNIFRFDSIQ [GRR1]
Reply: Met

Query: Identify whether the reported protein stability index of the following sequence is 3 or greater: NQMKVAPIPKQLLQRIP [GAL11]
Reply: Not met

Query: Identify whether the reported protein stability index of the following sequence is 3 or greater: LISSSGPIKTPVGACAT [FAS2]
Reply: Not met

Query: Identify whether the reported protein stability index of the following sequence is 3 or greater: FPQTAMLRRHAAPPSTN [DIS3]
Reply: Not met

Query: Identify whether the reported protein stability index of the following sequence is 3 or greater: IAFDDLIENKIQNKKIQ [RPN8]
Reply: Not met

Query: Identify whether the reported protein stability index of the following sequence is 3 or greater: TRAGGLGINLVTADTVI [ISW2]
Reply: Not met

Query: Identify whether the reported protein stability index of the following sequence is 3 or greater: DDENNPSHYPHPYEYEI [RRP6]
Reply: Not met

Query: Identify whether the reported protein stability index of the following sequence is 3 or greater: IFGSGFGSADDTYPYLT [FAS1]
Reply: Not met
